Here we gather IC50 data for Mast/stem cell growth factor receptor Kit (Homo sapiens) reported by several publications.
value_kind: IC50

INSERT INTO measurements (smiles_str, value_kind, result) VALUES
  ('CS(=O)(=O)c1cccc(-c2ccnc3[nH]cc(C(=O)c4cc(F)ccc4F)c23)c1', 'IC50', '≤ 10 µM'),
  ('CNc1ncnc2[nH]cc(C(=O)c3ccc(NC4CCC(F)(F)CC4)nc3F)c12', 'IC50', '< 1 µM'),
  ('CN1CCC(n2cc(Nc3ncc4c(n3)N3CCN=C3C(c3ccc(Cl)cc3Cl)=C4)cn2)CC1', 'IC50', '< 0.1 µM'),
  ('Cc1c[nH]c(-c2cnc3[nH]cc(C(=O)c4c(F)ccc(NS(=O)(=O)c5ccc(C(C)C)cc5)c4F)c3c2)n1', 'IC50', '≤ 10 µM'),
  ('CN1CCN(Cc2cc(NC(=O)c3ccc4c(c3)CN(c3cncnc3)CC4(C)C)cc(C(F)(F)F)c2)CC1', 'IC50', '> 10 µM'),
  ('O=C(c1cc(Cl)cc(Cl)c1)c1c[nH]c2ncc(-c3cccnc3)cc12', 'IC50', '≤ 10 µM');

====

pIC50: −log10 of the molar value.
Here we gather pIC50 data for Mast/stem cell growth factor receptor Kit (Homo sapiens, UniProt P10721) reported by several publications.
value_kind: pIC50

INSERT INTO results (smiles_str, measured_target, result) VALUES
  ('Clc1cnc2[nH]cc(Cc3cnc(Nc4ccccc4Cl)nc3)c2c1', 'Mast/stem cell growth factor receptor Kit (Homo sapiens, UniProt P10721)', '> 6.00'),
  ('O=C1Nc2ccccc2/C1=C/c1c[nH]c2ncccc12', 'Mast/stem cell growth factor receptor Kit (Homo sapiens, UniProt P10721)', '≥ 5.00'),
  ('CCS(=O)(=O)Nc1ccc(F)c(C(=O)c2c[nH]c3ncc(OC)cc23)c1F', 'Mast/stem cell growth factor receptor Kit (Homo sapiens, UniProt P10721)', '≥ 5.00'),
  ('Nc1ncc(-c2cccc(CNC(=O)Nc3ccc(Cl)c(C(F)(F)F)c3)c2)nc1C(=O)N1CCNCC1', 'Mast/stem cell growth factor receptor Kit (Homo sapiens, UniProt P10721)', '5.30 to 6.30');

====

Here we gather IC50 data for Mast/stem cell growth factor receptor Kit (Homo sapiens) reported by several publications.
value_kind: IC50

INSERT INTO assay_data (smiles_str, value_kind, result) VALUES
  ('CCCCNC(=O)Nc1ccc(F)c(C(=O)c2c[nH]c3ncc(-c4cccnc4)cc23)c1F', 'IC50', '≤ 10 µM'),
  ('Nc1ncnc2[nH]cc(C(=O)c3ccc(Nc4ccc(C5CC5)nc4)nc3F)c12', 'IC50', '< 0.01 µM'),
  ('Cc1cnc2[nH]cc(C(=O)c3cc(NS(=O)(=O)C4CCCCC4)ccc3F)c2c1', 'IC50', '≤ 10 µM'),
  ('CC(C)n1cc(NC(=O)Nc2ccc(Oc3ccnc(-c4cnn(C)c4)c3)cc2F)c(-c2ccccc2)n1', 'IC50', '< 0.1 µM');

====

Here we gather IC50 data for Mast/stem cell growth factor receptor Kit (Homo sapiens) reported by several publications.
value_kind: IC50

INSERT INTO measurements (compound, result) VALUES
  ('Cc1nc(-c2cnc3n(c2=O)CCCN3C(C)C)ccc1Oc1ccnc(-c2cnn(C)c2)c1', '0.0226 µM'),
  ('CCCS(=O)(=O)Nc1ccc(F)c(C(=O)c2c[nH]c3ncc(-c4cccc(C(=O)O)c4)cc23)c1F', '≤ 10 µM'),
  ('Cc1ccc(NC(=O)c2cc(C(F)(F)F)ccn2)cc1C1=Cc2cnc(Nc3cccc(CO)c3)nc2N2CCN=C12', '< 0.1 µM'),
  ('Nc1ncnc2c1c(-c1cccc(OCC3CCCO3)c1F)cn2[C@H]1C[C@@H](CN2CCS(=O)(=O)CC2)C1 (mixture of isomers)', '> 10 µM'),
  ('O=C(c1c(F)ccc(NS(=O)(=O)CCC(F)(F)F)c1F)c1c[nH]c2ncc(-c3ccc(F)cc3)cc12', '≤ 10 µM'),
  ('CCCS(=O)(=O)Nc1ccc(F)c(C(=O)c2c[nH]c3ncc(-c4ccc(S(=O)(=O)C(C)C)cc4)cc23)c1F', '≤ 10 µM'),
  ('COCCOCCOCCOCCOCCNCc1ccc(C(=O)Nc2ccc(C)c(Nc3nccc(-c4cccnc4)n3)c2)cc1', '0.44 µM'),
  ('[2H]C1([2H])C([2H])([2H])C2(COc3cccc(-c4cn([C@H]5C[C@@H](N6CC[S+]([O-])CC6)C5)c5ncnc(N)c45)c3F)OC1([2H])C([2H])([2H])C2([2H])[2H]', '> 10 µM'),
  ('Clc1ccc(COc2ccc(Cc3c[nH]c4ncccc34)cc2)cc1', '≤ 10 µM'),
  ('COc1cc(Cc2c[nH]c3ncc(Cl)cc23)c(F)cc1OCc1nc2cc(Cl)ccc2[nH]1', '≤ 10 µM'),
  ('N#Cc1cnc2[nH]cc(C(=O)c3c(F)ccc(NS(=O)(=O)C4CCCCC4)c3F)c2c1', '≤ 10 µM'),
  ('COc1cccc(C(=O)c2c[nH]c3ncc(-c4ccccc4)cc23)c1F', '≤ 10 µM'),
  ('CCCS(=O)(=O)Nc1ccc(F)c(C(=O)c2c[nH]c3ncc(-c4ccc(OCCO)nc4)cc23)c1F', '≤ 10 µM'),
  ('O=C(c1cccc(OCc2ccc(Cl)cc2F)c1OCC1CC1)c1c[nH]c2ncccc12', '≤ 10 µM'),
  ('CCc1ccc(Nc2ccc(C(=O)c3c[nH]c4ncnc(NC5CCCC5)c34)c(F)n2)cn1', '< 0.1 µM');

====

Here we gather IC50 data for Mast/stem cell growth factor receptor Kit (Homo sapiens, UniProt P10721) reported by several publications.
value_kind: IC50

INSERT INTO measurements (compound, result) VALUES
  ('Oc1ccc(Nc2c[nH]c3ncccc23)c(F)c1', '≤ 10 µM'),
  ('NC(=O)c1ccc(-c2ccnc3[nH]cc(C(=O)c4cc(F)ccc4F)c23)cc1', '≤ 10 µM'),
  ('O=C(NCCc1ccc(Cl)cc1)c1cc2n(c1)CCc1c(NC(=O)c3ccco3)n[nH]c1-2', '5.85 µM'),
  ('CCCCNc1ncnc2[nH]cc(C(=O)c3ccc(Nc4ccc(CC)nc4)nc3F)c12', '< 0.1 µM'),
  ('O=C(c1ccc(NC2CCC(F)(F)CC2)nc1F)c1c[nH]c2ncnc(NCC(F)(F)F)c12', '> 1 µM'),
  ('Cn1cc(-c2cnc3[nH]cc(C(=O)c4cccc(NS(=O)(=O)c5cccc(F)c5)c4)c3c2)cn1', '≤ 10 µM'),
  ('Nc1cccc(-c2cnc3[nH]cc(C(=O)c4cc(O)ccc4F)c3c2)c1', '≤ 10 µM'),
  ('CC(C)(C)c1cc(NC(=O)Nc2ccc(Oc3ncnc4[nH]ncc34)c(F)c2)no1', '0.087 µM'),
  ('COc1ccc(C(=O)c2c[nH]c3ncc(Br)cc23)c(F)c1', '≤ 10 µM'),
  ('Fc1ccc(OCc2ccccc2)c(F)c1Cc1c[nH]c2ncc(-c3cccnc3)cc12', '≤ 10 µM'),
  ('Cc1c(NS(C)(=O)=O)cccc1C(=O)c1c[nH]c2ncc(-c3ccccc3)cc12', '≤ 10 µM'),
  ('OC(c1c(F)ccc(OC(F)F)c1F)c1c[nH]c2ncc(Br)cc12 (centres unmarked)', '≤ 10 µM'),
  ('CN1CCN(c2ccc(Nc3ncc4c(n3)N3CCN=C3C(c3ccccc3Cl)=C4)cn2)CC1', '0.1 to 10 µM'),
  ('COc1cccc(Cc2c[nH]c3ncc(-c4ccc(N)cc4)cc23)c1', '≤ 10 µM'),
  ('Fc1cccc(F)c1Cc1c[nH]c2ncccc12', '≤ 10 µM'),
  ('CC(C)Oc1ccc(S(=O)(=O)Nc2ccc(F)c(C(=O)c3c[nH]c4ncc(Cl)cc34)c2F)cc1', '≤ 10 µM'),
  ('CCCc1ccc(S(=O)(=O)Nc2ccc(F)c(C(=O)c3c[nH]c4ncc(-c5ncc(C)[nH]5)cc34)c2F)cc1', '≤ 10 µM'),
  ('COc1ccc(C(=O)c2c[nH]c3ncc(-c4cccc(C(N)=O)c4)cc23)c(F)c1', '≤ 10 µM'),
  ('CCCS(=O)(=O)Nc1ccc(F)c(C(=O)c2c[nH]c3ncc(-c4nccn4C)cc23)c1F', '≤ 10 µM'),
  ('Fc1nc(NC2CCC(F)(F)CC2)ccc1Cc1c[nH]c2ncnc(NCC(F)(F)F)c12', '> 1 µM'),
  ('COCCOCCOCCOCCOCCOCCOCCOCCOCCNCc1ccc(C(=O)Nc2ccc(C)c(Nc3nccc(-c4cccnc4)n3)c2)cc1', '1.6 µM'),
  ('Nc1ncnc2[nH]cc(C(=O)c3ccc(NC4CCC(F)(F)CC4)nc3Cl)c12', '< 1 µM'),
  ('O=C(c1c(F)ccc(NS(=O)(=O)c2cccc(F)c2)c1F)c1c[nH]c2ncc(Cl)cc12', '≤ 10 µM'),
  ('Nc1ccc(F)c(C(=O)c2c[nH]c3ncc(-c4cccnc4)cc23)c1F', '≤ 10 µM'),
  ('CCCOc1ccc(Nc2ncc(Cc3c[nH]c4ncc(C)cc34)cn2)cc1', '< 0.01 µM'),
  ('CCCS(=O)(=O)Nc1ccc(F)c(C(=O)c2c[nH]c3ncc(-c4ccc(S(N)(=O)=O)cc4)cc23)c1F', '≤ 10 µM'),
  ('O=C(c1cccc(NS(=O)(=O)N2CCCCC2)c1)c1c[nH]c2ncc(Cl)cc12', '≤ 10 µM'),
  ('COc1ccc(CNc2ncc(Cc3c[nH]c4ncncc34)cn2)cn1', '≤ 10 µM'),
  ('CC1CN(c2cncnc2)Cc2cc(C(=O)Nc3cc(CN4CCOCC4)cc(C(F)(F)F)c3)ccc21 (centres unmarked)', '> 10 µM'),
  ('COc1cccc(C(=O)c2c[nH]c3ncc(-c4ccsc4)cc23)c1', '≤ 10 µM'),
  ('O=C(Nc1cc(C(F)(F)F)ccn1)OCc1cccc(-n2cnnn2)n1', '0.05 to 0.5 µM'),
  ('CCN1CCC(Nc2ccc3c(c2)/C(=C(/c2ncc[nH]2)c2ccc(F)cc2F)C(=O)N3)CC1', '< 0.05 µM');
